Test: clinical
Details: human, plasma, oral, 60 mg, Tmax, 60 mg QD, Day 7; median
recorded-metric: Tmax (h)
Record the value in h, omitting the unit from your answer.

## Task Supply Tmax value. Item: O=C(Cc1ccc(C2CC2)c(F)c1)N1CCN(c2ccc(Cl)nn2)CC1 [Compound (I)]
## Result 2.01

* * *

Experiment: clinical
Settings: human, plasma, oral, 70 mg
recorded-metric: half-life (h)
Express it in h; write the number only.

## Task Determine from records and report half-life for "O=C(Cc1ccc(C2CC2)c(F)c1)N1CCN(c2ccc(Cl)nn2)CC1"
## Result 6.83

* * *

Test: clinical
Conditions: human, plasma, oral, 70 mg, Tmax, 70 mg QD, Day 7; median
recorded-metric: Tmax
Be sure to follow the number with its unit.

## Task Give the reported Tmax for this molecule. O=C(Cc1ccc(C2CC2)c(F)c1)N1CCN(c2ccc(Cl)nn2)CC1 [Compound (I)]
## Result 1.5 h

* * *

Test: clinical
Settings: human, plasma, oral, 30 mg, AUCtau, 30 mg QD, Day 1; AUC0-24; arithmetic mean
recorded-metric: AUC

## Task Kindly indicate its recorded AUC. Item: O=C(Cc1ccc(C2CC2)c(F)c1)N1CCN(c2ccc(Cl)nn2)CC1 [Compound (I)]
## Result 476 ng·h/mL

* * *

Assay: clinical
Settings: human, plasma, po, Tmax after oral administration, healthy subjects, over cohorts
recorded-metric: Tmax

## Task Return the recorded Tmax value; entry: O=C(Cc1ccc(C2CC2)c(F)c1)N1CCN(c2ccc(Cl)nn2)CC1 [Compound (I)]
## Result 1 to 2 h

* * *

Assay: clinical
Conditions: human, plasma, oral, 60 mg, AUCtau, 60 mg QD, Day 1; AUC0-24; arithmetic mean
Excerpt: Following the screening period, eligible subjects will be admitted to the clinical unit on Day 1. All subjects will receive the study drug for 7 days starting on Day 1. […] Dosing frequency and any instructions regarding meal intake will depend on data from the SAD cohorts and will be provided in a separate document. The dosing duration may be increased to up to 14 days to allow for achievement of 3 half-lives. […]
recorded-metric: AUC (ng·h/mL)
Write it as a number; the unit ng·h/mL goes unstated.

## Task Specify AUC for O=C(Cc1ccc(C2CC2)c(F)c1)N1CCN(c2ccc(Cl)nn2)CC1 [Compound (I)] and stop.
## Result 1670

* * *

Test: in vivo
Settings: female, rat
recorded-metric: NOAEL at 13 weeks
Please append the unit to your numeric answer.

## Task Answer with reported NOAEL at 13 weeks of "O=C(Cc1ccc(C2CC2)c(F)c1)N1CCN(c2ccc(Cl)nn2)CC1"
## Result 8 mg/kg/day

* * *

Assay: clinical
Settings: human, plasma, oral, 30 mg, Cmax, 30 mg QD, Day 7; arithmetic mean
recorded-metric: Cmax (ng/mL)
Only the number, expressed in ng/mL, is required.

## Task Answer with the recorded Cmax for the molecule listed here: "O=C(Cc1ccc(C2CC2)c(F)c1)N1CCN(c2ccc(Cl)nn2)CC1"
## Result 158

* * *

Assay: clinical
Settings: human, plasma, oral, 60 mg, Tmax, 60 mg QD, Day 1; median
recorded-metric: Tmax (h)
Dear colleague, please return just the value in h, with no unit written.

## Task Give reported Tmax value for "O=C(Cc1ccc(C2CC2)c(F)c1)N1CCN(c2ccc(Cl)nn2)CC1"
## Result 1.75

* * *

Test: clinical
Conditions: human, plasma, oral, 30 mg
recorded-metric: half-life (h)
Your answer is read as h, so omit the unit and give the number.

## Task Give a short answer stating reported half-life for O=C(Cc1ccc(C2CC2)c(F)c1)N1CCN(c2ccc(Cl)nn2)CC1 [Compound (I)] .
## Result 7.55

All figures here come from patent US20260183283A1.
